Reference source: paper PMC10842001

# Lookup of reported kon keyed by entry
target: PSD-95 PDZ3cα protein (residues R309-S422) (UniProt P78352 309-422); assay: SPR
Sequence (P78352 309-422): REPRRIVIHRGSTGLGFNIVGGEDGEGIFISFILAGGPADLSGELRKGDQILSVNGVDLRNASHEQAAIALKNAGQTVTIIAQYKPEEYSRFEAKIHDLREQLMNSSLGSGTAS
Where no end group is shown, it is not given here. [ ]: non-standard residue; d: D form. Phe(4-NH2) = Nc1ccc(C[C@H](N)C(=O)O)cc1
EXPERIMENTAL_READOUT: kon (M⁻¹ s⁻¹)

binder="GSFPPWVQ [αC binder (peptide 8), fragment of the SYNGAP peptide made up of only αC helix interacting residues]" quantitative_readout=1000
binder="RRRRRRGS[Phe(4-NH2)]PPWVQQTRV [F4-NH2F (peptide 12), SYNGAP peptide with ζ-Amino-Phe in place of Phe4]" quantitative_readout=153000
binder="RRRRRRGSFPPWV[dQ]QTRV [D-Gln9 (peptide 18), SYNGAP peptide with d-Gln]" quantitative_readout=317000
